- TARGET_ENTITY: native human MET on living cells (human, UniProt P08581 25-1390)
- Sequence (P08581 25-1390): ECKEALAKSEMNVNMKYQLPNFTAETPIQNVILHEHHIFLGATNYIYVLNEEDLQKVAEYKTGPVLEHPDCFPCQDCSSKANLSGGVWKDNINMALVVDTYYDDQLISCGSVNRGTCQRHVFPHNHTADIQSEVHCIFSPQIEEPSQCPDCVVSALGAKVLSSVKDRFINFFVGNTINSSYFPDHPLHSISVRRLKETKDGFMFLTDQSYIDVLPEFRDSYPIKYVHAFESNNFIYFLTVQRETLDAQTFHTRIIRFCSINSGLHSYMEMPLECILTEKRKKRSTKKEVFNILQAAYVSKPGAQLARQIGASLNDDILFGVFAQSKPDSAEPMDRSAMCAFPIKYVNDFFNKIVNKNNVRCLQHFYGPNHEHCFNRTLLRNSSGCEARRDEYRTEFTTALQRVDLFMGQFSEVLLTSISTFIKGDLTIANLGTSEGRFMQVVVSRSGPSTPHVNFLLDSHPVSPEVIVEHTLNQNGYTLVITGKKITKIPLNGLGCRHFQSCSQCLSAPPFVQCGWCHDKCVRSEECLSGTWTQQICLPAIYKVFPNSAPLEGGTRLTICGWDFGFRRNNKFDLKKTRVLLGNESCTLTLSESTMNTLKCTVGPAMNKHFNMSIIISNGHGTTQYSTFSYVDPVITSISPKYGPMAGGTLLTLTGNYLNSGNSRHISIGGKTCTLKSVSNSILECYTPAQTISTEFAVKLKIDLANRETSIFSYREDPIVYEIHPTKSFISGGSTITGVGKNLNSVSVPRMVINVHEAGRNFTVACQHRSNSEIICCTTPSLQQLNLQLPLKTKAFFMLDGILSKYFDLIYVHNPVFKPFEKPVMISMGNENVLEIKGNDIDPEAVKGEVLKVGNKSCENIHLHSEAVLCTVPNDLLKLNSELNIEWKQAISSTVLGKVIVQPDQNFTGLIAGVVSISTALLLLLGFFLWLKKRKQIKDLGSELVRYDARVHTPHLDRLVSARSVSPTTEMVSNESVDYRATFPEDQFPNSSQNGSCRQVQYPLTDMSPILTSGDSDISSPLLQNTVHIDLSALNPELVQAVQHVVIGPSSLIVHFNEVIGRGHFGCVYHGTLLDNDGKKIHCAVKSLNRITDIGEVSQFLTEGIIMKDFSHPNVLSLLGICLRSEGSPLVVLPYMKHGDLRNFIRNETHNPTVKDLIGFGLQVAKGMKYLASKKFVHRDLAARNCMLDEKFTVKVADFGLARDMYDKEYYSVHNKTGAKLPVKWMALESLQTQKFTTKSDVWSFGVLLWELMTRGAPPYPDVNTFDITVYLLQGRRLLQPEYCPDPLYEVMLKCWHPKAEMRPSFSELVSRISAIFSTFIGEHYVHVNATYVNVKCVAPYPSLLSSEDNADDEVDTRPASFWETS
- TEST_SUMMARY: cell-based or functional assay
Measured scatter score 0-4, HPAF-II, 0.333 nM accompanies every entry in the list below.
Give just the numeric value; score need not be written.

// solved cases for scatter score 0-4, HPAF-II, 0.333 nM follow
Lookup result for 76G7 chimeric llama-human IgG1 mAb (antibody, V domains shown, llama VH on human IgG1 CH1-CH2-CH3, llama VL on human lambda CL) VH: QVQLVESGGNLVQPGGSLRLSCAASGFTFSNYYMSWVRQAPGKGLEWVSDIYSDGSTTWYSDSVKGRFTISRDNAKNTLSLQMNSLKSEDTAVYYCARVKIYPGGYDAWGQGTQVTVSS VL: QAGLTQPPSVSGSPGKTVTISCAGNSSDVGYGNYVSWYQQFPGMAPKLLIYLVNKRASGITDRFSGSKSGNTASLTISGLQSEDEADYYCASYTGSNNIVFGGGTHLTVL ; measured scatter score 0-4, HPAF-II, 0.333 nM: 0

Please fill in: scatter score 0-4, HPAF-II, 0.333 nM reported for 71G12 chimeric llama-human IgG1 mAb (antibody, V domains shown, llama VH on human IgG1 CH1-CH2-CH3, llama VL on human kappa CL) VH: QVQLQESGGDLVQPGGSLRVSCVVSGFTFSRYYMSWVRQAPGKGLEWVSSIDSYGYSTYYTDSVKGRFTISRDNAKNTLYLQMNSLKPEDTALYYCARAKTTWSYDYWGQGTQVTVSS VL: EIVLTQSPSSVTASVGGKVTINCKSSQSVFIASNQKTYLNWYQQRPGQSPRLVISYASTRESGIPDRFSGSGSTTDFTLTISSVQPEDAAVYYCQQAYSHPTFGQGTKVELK = 1

Entry 74C8 chimeric llama-human IgG1 mAb (antibody, V domains shown, llama VH on human IgG1 CH1-CH2-CH3, llama VL on human lambda CL) VH: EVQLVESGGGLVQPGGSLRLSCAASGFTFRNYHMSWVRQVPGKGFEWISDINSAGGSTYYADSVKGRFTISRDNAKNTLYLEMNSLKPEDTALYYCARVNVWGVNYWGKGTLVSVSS VL: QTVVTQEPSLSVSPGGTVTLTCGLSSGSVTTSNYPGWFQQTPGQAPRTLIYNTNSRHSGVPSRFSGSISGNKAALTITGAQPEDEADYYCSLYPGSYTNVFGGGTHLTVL , scatter score 0-4, HPAF-II, 0.333 nM reported as 3

Next binder, please.
In plain terms, 76H10 chimeric llama-human IgG1 mAb (antibody, V domains shown, llama VH on human IgG1 CH1-CH2-CH3, llama VL on human lambda CL) VH: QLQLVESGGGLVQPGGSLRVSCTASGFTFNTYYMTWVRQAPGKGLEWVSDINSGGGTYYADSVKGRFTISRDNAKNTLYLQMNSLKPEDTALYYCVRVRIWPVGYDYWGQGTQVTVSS VL: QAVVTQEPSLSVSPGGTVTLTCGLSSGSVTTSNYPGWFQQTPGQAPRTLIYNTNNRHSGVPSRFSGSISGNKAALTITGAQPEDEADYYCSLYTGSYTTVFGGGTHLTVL has a documented scatter score 0-4, HPAF-II, 0.333 nM of 0
